# Target Or Test System: Recombinant human CES1 (Homo sapiens)
# Construct: purchased BD Gentest (Woburn, MA, US)
# Sequence (P23141 18-567): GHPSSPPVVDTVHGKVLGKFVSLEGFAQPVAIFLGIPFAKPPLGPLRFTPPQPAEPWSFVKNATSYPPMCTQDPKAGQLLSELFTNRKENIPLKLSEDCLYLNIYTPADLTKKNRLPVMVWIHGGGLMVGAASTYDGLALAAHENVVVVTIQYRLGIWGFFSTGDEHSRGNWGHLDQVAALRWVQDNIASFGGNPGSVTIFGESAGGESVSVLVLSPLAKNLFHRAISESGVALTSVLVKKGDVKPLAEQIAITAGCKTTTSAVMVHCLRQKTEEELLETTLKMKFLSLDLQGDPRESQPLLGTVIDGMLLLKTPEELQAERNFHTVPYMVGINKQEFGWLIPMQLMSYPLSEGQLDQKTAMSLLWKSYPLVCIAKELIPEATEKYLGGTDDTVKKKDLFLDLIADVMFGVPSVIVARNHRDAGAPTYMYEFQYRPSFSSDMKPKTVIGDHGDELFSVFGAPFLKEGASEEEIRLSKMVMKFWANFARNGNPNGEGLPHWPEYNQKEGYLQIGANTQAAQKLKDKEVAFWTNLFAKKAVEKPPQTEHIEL
# Assay Notes: In vitro assessment of CES1 inhibition (p-nitrophenyl acetate hydrolysis)
# Assay type: biochemical
# Condition Summary: substrate p-nitrophenyl acetate 100 µM, 37 °C, 3 min; NS means Non-significant; read-out: IC50
Readout Kind: pIC50
Scale note: pIC50 = -log10(concentration in M).

Query :: Item CN1[C@@H]2CC[C@H]1C[C@@H](OC(c1ccccc1)c1ccccc1)C2 [Benztropine] with Recombinant human CES1 (Homo sapiens) - pIC50?
Result :: 3.53

Query :: Item CCCCC[C@H](O)CC[C@@H]1[C@H]2Cc3cccc(OCC(=O)O)c3C[C@H]2C[C@H]1O [Treprostinil] with Recombinant human CES1 (Homo sapiens) - pIC50?
Result :: 3.41

Query :: Item COc1ccc([C@@H]2Sc3ccccc3N(CCN(C)C)C(=O)[C@@H]2OC(C)=O)cc1 [Diltiazem] with Recombinant human CES1 (Homo sapiens) - pIC50?
Result :: 4.86

Query :: Item CC#CCC(C)[C@H](O)/C=C/[C@@H]1[C@H]2C/C(=C/CCCC(=O)O)C[C@H]2C[C@H]1O (some centres unmarked) [Iloprost] with Recombinant human CES1 (Homo sapiens) - pIC50?
Result :: 3.44
